Values from ChEMBL document CHEMBL3351941

experiment: Effective permeability of the compound by PAMPA assay; assay type: ADME; conditions: read-out: Peff
Decide using Papp alone. Strictly below 9 ×10⁻⁶ cm/s: y. Equal to or above 9 ×10⁻⁶ cm/s: n.

[
  {
    "SMILES REPR": "CC1=C[C@H]2Cc3nc4cc(Cl)ccc4c(NCCCCCCCCNc4c5c(nc6cc(Cl)ccc46)C[C@@H]4C=C(C)C[C@H]5C4)c3[C@@H](C1)C2",
    "LABEL VALUE": "n"
  },
  {
    "SMILES REPR": "CC1=C[C@H]2Cc3nc4cc(Cl)ccc4c(NCCCCCCCCCCNc4c5c(nc6cc(Cl)ccc46)C[C@@H]4C=C(C)C[C@H]5C4)c3[C@@H](C1)C2",
    "LABEL VALUE": "y"
  },
  {
    "SMILES REPR": "CC1=C[C@H]2Cc3nc4cc(Cl)ccc4c(NCCCCCCCCCCCCNc4c5c(nc6cc(Cl)ccc46)C[C@@H]4C=C(C)C[C@H]5C4)c3[C@@H](C1)C2",
    "LABEL VALUE": "n"
  },
  {
    "SMILES REPR": "CC1=C[C@H]2Cc3nc4cc(Cl)ccc4c(NCc4ccc(CNc5c6c(nc7cc(Cl)ccc57)C[C@@H]5C=C(C)C[C@H]6C5)cc4)c3[C@@H](C1)C2",
    "LABEL VALUE": "y"
  },
  {
    "SMILES REPR": "CC1=C[C@H]2Cc3nc4cc(Cl)ccc4c(NCCCCCCNc4c5c(nc6cc(Cl)ccc46)C[C@@H]4C=C(C)C[C@H]5C4)c3[C@@H](C1)C2",
    "LABEL VALUE": "n"
  }
]
